- targetOrTestSystem: α-synuclein (UniProt P37840 1-140); note: test concentration or dose not given here
- protocol: cell-based or functional assay
Non-standard residues stand in square brackets, D forms with d.
measuredAttribute: % decrease in rate of aggregation (%)
Provide only the numeric value, understood in %.

Lab book: % decrease in rate of aggregation of Ac-[dH][dH][dT][dI][dV][dV]-NH2 (SMILES CC[C@@H](C)[C@@H](NC(=O)[C@H](NC(=O)[C@@H](Cc1c[nH]cn1)NC(=O)[C@@H](Cc1c[nH]cn1)NC(C)=O)[C@H](C)O)C(=O)N[C@@H](C(=O)N[C@@H](C(N)=O)C(C)C)C(C)C) [ZP-0175] noted as 16.8

Others:
Lab book: % decrease in rate of aggregation of Ac-[dQ][dY][dP][dV][dL][dI]-NH2 (SMILES CC[C@@H](C)[C@@H](NC(=O)[C@@H](CC(C)C)NC(=O)[C@H](NC(=O)[C@H]1CCCN1C(=O)[C@@H](Cc1ccc(O)cc1)NC(=O)[C@@H](CCC(N)=O)NC(C)=O)C(C)C)C(N)=O) [ZP-0206] noted as 8.4

Taken from patent US8290713.
